# experiment: Unbound brain-to-plasma concentration ratio in Wistar Han rat at 2.3 microM/Kg, iv and measured after 4 hrs
# Type: ADME, organism-based
# run-conditions: read-out: K(p,uu,brain)
metric-name: Kp uu at 4 h

A: C=CC(=O)N1CCN2Cc3ccc(-c4c(C)ccc5[nH]ncc45)c(Cl)c3OC[C@H]2C1
B: C=CC(=O)N1CCN(c2nc(=O)n(-c3c(C)ccnc3C(C)C)c3nc(-c4c(O)cccc4F)c(F)cc23)[C@@H](C)C1 [SOTORASIB]
Input line: Lab note: check whether A or B shows the higher recorded Kp uu at 4 h. // caller expects the label of the chosen entry
Output line: A
(A: 0.24, B: 0.01)
